B1: library; numbered along this chain (parent)
chain: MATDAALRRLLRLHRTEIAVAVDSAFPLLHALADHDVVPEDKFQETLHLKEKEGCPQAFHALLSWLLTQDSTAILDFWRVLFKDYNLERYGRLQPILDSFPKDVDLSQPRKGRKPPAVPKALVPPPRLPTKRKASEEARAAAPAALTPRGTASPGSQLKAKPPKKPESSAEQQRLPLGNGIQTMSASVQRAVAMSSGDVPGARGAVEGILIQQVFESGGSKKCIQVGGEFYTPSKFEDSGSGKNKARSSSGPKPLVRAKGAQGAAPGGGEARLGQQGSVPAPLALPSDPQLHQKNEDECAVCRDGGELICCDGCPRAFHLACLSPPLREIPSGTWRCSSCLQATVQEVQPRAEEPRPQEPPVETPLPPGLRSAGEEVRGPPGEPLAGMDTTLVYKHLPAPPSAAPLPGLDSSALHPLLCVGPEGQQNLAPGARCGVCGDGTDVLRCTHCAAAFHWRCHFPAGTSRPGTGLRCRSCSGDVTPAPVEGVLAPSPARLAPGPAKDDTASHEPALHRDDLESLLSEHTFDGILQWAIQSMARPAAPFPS

- Variants of: B1
- Protocol description: AIRE transcriptional activation functional score (insulin promoter-GFP; nonsense median 0, synonymous median 1) (normalised score); higher = higher AIRE activity (more reporter activation)
- Settings: with insulin promoter-GFP reporter in HEK293
Value kind: AIRE transcriptional activation functional score

- P326S: 0.881
- P129N: 0.901
- S402V: 0.921
- T391P: 0.882
- R433D: 0.895
